Each recorded value in this set is attributed to patent US20230220074A1.

biological target: T1, human PILRA (human, UniProt Q9UKJ1 20-303); assay: flow cytometry, hybridoma conditioned medium on 293 cells expressing the target; MFI relative to 293 parental cells
T1 construct: also called hPILRA
T1 sequence (Q9UKJ1 20-303): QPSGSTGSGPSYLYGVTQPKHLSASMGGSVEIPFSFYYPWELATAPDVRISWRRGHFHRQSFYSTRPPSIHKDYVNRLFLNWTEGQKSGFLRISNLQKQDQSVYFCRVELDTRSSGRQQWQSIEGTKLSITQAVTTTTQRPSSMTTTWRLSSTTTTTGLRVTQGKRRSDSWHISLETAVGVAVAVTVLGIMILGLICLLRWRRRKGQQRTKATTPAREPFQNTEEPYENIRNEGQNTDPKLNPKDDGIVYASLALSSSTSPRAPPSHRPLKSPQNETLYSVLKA
READOUT TYPE: MFI relative to 293 parental cells

## Input Consider the binder hPA-002 (antibody, V domains shown, Mouse hybridoma antibody, tested as conditioned medium or purified; also called hPA-002 A647) VH: QVTLQESGPGILQPSQTLSLTCSFSGFSLSTFGMGVGWIRQPSGKGLEWLAHIWWDDDKYYNPALKSRLTISKDTSKNQVFLKIASVDTADIATYYCARVEDYGNPFDYWGQGTTLTVSS VL: DIQMNQSPSSLSASLGDTITITCHASQNIHVWLNWYQQKPGNIPKLLIYKASNLHTGVPSRFSGSGSGTGFTVTISSLQPEDIATYYCQQGQSYPLTFGAGTKLELK and give its recorded MFI relative to 293 parental cells.
## Output 133 fold over 293 parental cells

## Input Consider the binder hPA-004 (antibody, V domains shown, Mouse hybridoma antibody, tested as conditioned medium or purified) VH: QVTLKESGPGMLQPSQTLSLACSFSGFSLNSFGVAVGWIRQPSGKGLEWLAHIWWDDDKSYNPALKSRLTISKDTSKNQVFLKLANVDTADTATYYCTRIADYGNHFDYWGQGTALTVSS VL: DIQMNQSPSSLSASLGDTITITCHASQNSHVWLSWYQQKPGNIPKLLIYKASNLHTGVPSRFSGSGSGTGFTLTISGLQPEDIATYYCQQGQTYPFTFGSGTKLEIK and give its recorded MFI relative to 293 parental cells.
## Output 83.9 fold over 293 parental cells

## Input Consider the binder hPA-005 (antibody, V domains shown, Mouse hybridoma antibody, tested as conditioned medium or purified) VH: QVILKESGPGILQSSQTLSLTCSFSGFSLSTFGMGVGWIRQPSGKGLESLAHIWWDDDKFYNPALKSRLTISKDTSKSQVFLKIANVDTADIATYYCTRIEDYGSYFAYWGQGTTLTVSS VL: DVQMNQSPSSLSASLGDPITITCHASQNIHVWLNWYQQRPGNIPRLLIYKASNLHTGVPSRFSGSGSGTGFTLTISSLQPEDIATYYCQQGQSYPYTFGGGTKLEIK and give its recorded MFI relative to 293 parental cells.
## Output 104 fold over 293 parental cells

## Input Consider the binder hPA-001 (antibody, V domains shown, Mouse hybridoma antibody, tested as conditioned medium) VH: QVTLKESGPGILQPSQTLSLTCSFSGFSLTTFGMGVGWIRQPSGKGLEWLAHIWWDDDKYYNPALKSRLTISKDISKNQVFLKIANVDTADTATYYCARIEDYGNPFDYWGQGTTLTVSS VL: DIQMNQSPSSLSASLGDTITITCHASQNIHVWLSWYQQKPGNIPKLLIYKASNLHTGVPSRFSGSGSGTGFTLTISSLQPEDIATYYCQQGQSYPLTFGAGTKLELK and give its recorded MFI relative to 293 parental cells.
## Output 131 fold over 293 parental cells
